test: Cytotoxicity against human HTB-54 cells after 72 hrs by MTT assay; type: functional; settings: HTB-54, 72 h
Hi! Just check whether GI50 is below 600 nM. Below gives MET, equal or above gives NOT MET.

- Given smiles: "O=S1(=O)C=Cc2ccc(O)cc21"
  Class: "NOT MET"
- Given smiles: "CN(Cc1ccccc1)S(=O)(=O)c1ccc2c(c1)S(=O)(=O)C=C2"
  Class: "MET"
- Given smiles: "CCCCNC(=O)c1ccc2c(c1)S(=O)(=O)C=C2"
  Class: "MET"
- Given smiles: "NS(=O)(=O)c1ccc2c(c1)S(=O)(=O)C=C2"
  Class: "NOT MET"
- Given smiles: "COc1ccc(NC(=O)c2ccc3c(c2)S(=O)(=O)C=C3)cc1"
  Class: "MET"
- Given smiles: "NC(=O)c1ccc2c(c1)S(=O)(=O)C=C2"
  Class: "MET"
- Given smiles: "COc1ccc(CCNC(=O)c2ccc3c(c2)S(=O)(=O)C=C3)cc1"
  Class: "NOT MET"
- Given smiles: "COc1ccc(CCNS(=O)(=O)c2ccc3c(c2)S(=O)(=O)C=C3)cc1"
  Class: "NOT MET"
- Given smiles: "O=S1(=O)C=Cc2ccc(S(=O)(=O)NCc3ccccc3)cc21"
  Class: "NOT MET"
